System: Saccharomyces cerevisiae
measurementNotes: protein stability index of tFT-peptide fusion (C-terminal peptide) (PSI (0-1 scale)); higher = more stable (slower turnover)
testConditions: genetic background: wild type; temperature: 30 C
measuredMetric: protein stability index
API note: the answer field is a bare number with no unit suffix.

Ask | Enter reported protein stability index observed with Saccharomyces cerevisiae for NMVNFESEKVNR [YVH1 C-terminal 12 aa]
Reply | 0.662

Ask | Enter reported protein stability index observed with Saccharomyces cerevisiae for FLLVLFFICIIL [YOL014W C-terminal 12 aa]
Reply | 0.306

Ask | Enter reported protein stability index observed with Saccharomyces cerevisiae for TILFMLVLYTIV [YDL241W C-terminal 12 aa]
Reply | 0.222

Ask | Enter reported protein stability index observed with Saccharomyces cerevisiae for KNSDSTEKNATI [DAT1 C-terminal 12 aa]
Reply | 0.736

Ask | Enter reported protein stability index observed with Saccharomyces cerevisiae for LKKEKLQALPTP [PDP3 C-terminal 12 aa]
Reply | 0.675

Ask | Enter reported protein stability index observed with Saccharomyces cerevisiae for SKSFPTAGEMRA [PET8 C-terminal 12 aa]
Reply | 0.728

Ask | Enter reported protein stability index observed with Saccharomyces cerevisiae for KPGTIIHFSTNR [ASK1 C-terminal 12 aa]
Reply | 0.691

Ask | Enter reported protein stability index observed with Saccharomyces cerevisiae for FGSSRSEWYLAL [YPL114W C-terminal 12 aa]
Reply | 0.709

Ask | Enter reported protein stability index observed with Saccharomyces cerevisiae for LEDEDVVTILKK [RBG1 C-terminal 12 aa]
Reply | 0.707

Ask | Enter reported protein stability index observed with Saccharomyces cerevisiae for ALDAEKYLTSLE [TRR1 C-terminal 12 aa]
Reply | 0.695

Ask | Enter reported protein stability index observed with Saccharomyces cerevisiae for IVKAVKEVLSIE [PDB1 C-terminal 12 aa]
Reply | 0.667

Ask | Enter reported protein stability index observed with Saccharomyces cerevisiae for SMDEEFKNMDCI [SIR3 C-terminal 12 aa]
Reply | 0.701

Ask | Enter reported protein stability index observed with Saccharomyces cerevisiae for TLIDYFIENDGL [LYS5 C-terminal 12 aa]
Reply | 0.761

Ask | Enter reported protein stability index observed with Saccharomyces cerevisiae for RWELVRESWREL [HSV2 C-terminal 12 aa]
Reply | 0.786

Ask | Enter reported protein stability index observed with Saccharomyces cerevisiae for PFGKKKTGLFSL [PRM10 C-terminal 12 aa]
Reply | 0.717

Ask | Enter reported protein stability index observed with Saccharomyces cerevisiae for RRPSSTSQYLIR [CDC20 C-terminal 12 aa]
Reply | 0.679

Ask | Enter reported protein stability index observed with Saccharomyces cerevisiae for SDEFVDASEYKD [UTP9 C-terminal 12 aa]
Reply | 0.672

Ask | Enter reported protein stability index observed with Saccharomyces cerevisiae for SKGSPINTQYVF [AGA2 C-terminal 12 aa]
Reply | 0.732

Ask | Enter reported protein stability index observed with Saccharomyces cerevisiae for SFRLTKRQTDND [POS5 C-terminal 12 aa]
Reply | 0.709

Ask | Enter reported protein stability index observed with Saccharomyces cerevisiae for KKRKFGKVRIKN [NEJ1 C-terminal 12 aa]
Reply | 0.698

Ask | Enter reported protein stability index observed with Saccharomyces cerevisiae for EQIELKNFFVDV [YCR016W C-terminal 12 aa]
Reply | 0.7

Ask | Enter reported protein stability index observed with Saccharomyces cerevisiae for KIGKGKLYFAIV [YDR220C C-terminal 12 aa]
Reply | 0.491

Ask | Enter reported protein stability index observed with Saccharomyces cerevisiae for LYGQRFLATGFQ [AIM19 C-terminal 12 aa]
Reply | 0.705

Ask | Enter reported protein stability index observed with Saccharomyces cerevisiae for NTFVLNMSRFII [YDL068W C-terminal 12 aa]
Reply | 0.365

Ask | Enter reported protein stability index observed with Saccharomyces cerevisiae for KMKQRKLTPGDS [CMC4 C-terminal 12 aa]
Reply | 0.65

Where these numbers come from: the supplement of paper PMC10724198
